- assayed target: Estrogen receptor (Homo sapiens, UniProt P03372);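 note: potency for inhibiting coactivator peptide recruitment to the receptor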
- Sequence (P03372 whole entry): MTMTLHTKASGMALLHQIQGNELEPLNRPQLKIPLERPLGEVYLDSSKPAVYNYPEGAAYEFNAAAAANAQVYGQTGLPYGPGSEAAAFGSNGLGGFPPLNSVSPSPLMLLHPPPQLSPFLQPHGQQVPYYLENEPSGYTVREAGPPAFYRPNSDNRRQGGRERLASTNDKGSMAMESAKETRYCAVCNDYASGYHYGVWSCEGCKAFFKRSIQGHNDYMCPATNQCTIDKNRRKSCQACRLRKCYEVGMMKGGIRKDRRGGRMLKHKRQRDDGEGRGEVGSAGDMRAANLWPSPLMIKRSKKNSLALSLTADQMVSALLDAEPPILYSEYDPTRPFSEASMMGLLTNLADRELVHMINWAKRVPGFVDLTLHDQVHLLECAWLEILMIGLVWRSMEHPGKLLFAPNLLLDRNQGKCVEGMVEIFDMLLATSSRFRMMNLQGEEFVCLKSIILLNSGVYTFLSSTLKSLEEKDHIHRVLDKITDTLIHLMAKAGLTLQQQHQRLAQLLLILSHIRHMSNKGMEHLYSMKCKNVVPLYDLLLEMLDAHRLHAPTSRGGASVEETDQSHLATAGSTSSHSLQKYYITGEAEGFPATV
Calls of active or inactive are those of the source.
Let's look at some compounds and their measured IC50.

compound: COc1ccc(C)cc1-n1nnnc1SCC(=O)NC(=O)NCc1ccco1
IC50: 9.48 µM (active)

compound: Cc1ccc(S(=O)(=O)Cc2ccc(C(=O)N3CCC4(CC3)OCCO4)o2)cc1
IC50: 43 µM (not active)

compound: Cc1cccc(NC(=O)Cn2cc(C(=O)c3ccco3)c3ccccc32)c1
IC50: > 50 µM (not active)

Alright, here's another compound for you.
Exercise: Read the entry CCC1(C)NC(=O)N(CC(=O)Nc2sc3c(c2C(N)=O)CCC3)C1=O (centres undefined) and write its reported IC50.
Solution: 18.2 µM (active)

----------
- assayed target: Microphthalmia-associated transcription factor (Homo sapiens)
- Sequence (O75030 whole entry): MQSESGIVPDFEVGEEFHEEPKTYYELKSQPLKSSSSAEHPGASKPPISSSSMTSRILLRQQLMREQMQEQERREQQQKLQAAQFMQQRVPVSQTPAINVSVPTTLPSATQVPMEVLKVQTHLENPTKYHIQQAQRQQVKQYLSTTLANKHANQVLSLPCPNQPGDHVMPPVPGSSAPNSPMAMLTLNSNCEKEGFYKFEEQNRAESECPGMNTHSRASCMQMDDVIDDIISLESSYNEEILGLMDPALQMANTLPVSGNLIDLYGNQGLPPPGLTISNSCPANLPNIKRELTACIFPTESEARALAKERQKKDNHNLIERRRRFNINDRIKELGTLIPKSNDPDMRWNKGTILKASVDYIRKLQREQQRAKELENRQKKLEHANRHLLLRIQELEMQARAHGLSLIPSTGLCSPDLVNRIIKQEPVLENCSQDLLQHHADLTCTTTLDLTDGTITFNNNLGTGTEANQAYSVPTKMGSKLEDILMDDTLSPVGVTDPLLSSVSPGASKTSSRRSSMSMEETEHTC
- test description: reducers of TRPM1 reporter luminescence, concentration series – cell-based, SK-MEL-5, cherry-picked, set 3, MITF inhibitor project, dose response (AID 493073);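 note: SK-MEL-5 melanoma cells with luciferase driven by the MITF target TRPM1 promoter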
- Format: functional
Calls of active or inactive are those of the source.
Let's look at some molecules and their measured AC50.

compound structure string: Nc1c(N(CCC2=CCCCC2)C(=O)COc2ccc([N+](=O)[O-])cc2)c(=O)[nH]c(=O)n1Cc1ccccc1
assayed target: Microphthalmia-associated transcription factor (Homo sapiens)
val: 14.2 µM (active)
//
compound structure string: OCCNc1c2ccccc2nc2c(F)c(F)c(F)c(F)c12
assayed target: Microphthalmia-associated transcription factor (Homo sapiens)
val: 4.14 µM (active)
//
compound structure string: CCSc1ccccc1C(=O)n1nnc2ccccc21
assayed target: Microphthalmia-associated transcription factor (Homo sapiens)
val: 11.8 µM (active)

Alright, here's another molecule for you.
Exercise: Read the entry CC(C)(C)c1ccc(C(=O)Nc2sc3c(c2C(=O)O)CCC3)cc1 and write its reported AC50.
Solution: 2.09 µM (active)

----------
Let's look at some compounds and their measured AC50.
- assayed target: Cytochrome P450 1A2 (Homo sapiens, UniProt P05177);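 note: PubChem cytochrome P450 panel assay, CYP1A2 panel member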
- Sequence (P05177 whole entry): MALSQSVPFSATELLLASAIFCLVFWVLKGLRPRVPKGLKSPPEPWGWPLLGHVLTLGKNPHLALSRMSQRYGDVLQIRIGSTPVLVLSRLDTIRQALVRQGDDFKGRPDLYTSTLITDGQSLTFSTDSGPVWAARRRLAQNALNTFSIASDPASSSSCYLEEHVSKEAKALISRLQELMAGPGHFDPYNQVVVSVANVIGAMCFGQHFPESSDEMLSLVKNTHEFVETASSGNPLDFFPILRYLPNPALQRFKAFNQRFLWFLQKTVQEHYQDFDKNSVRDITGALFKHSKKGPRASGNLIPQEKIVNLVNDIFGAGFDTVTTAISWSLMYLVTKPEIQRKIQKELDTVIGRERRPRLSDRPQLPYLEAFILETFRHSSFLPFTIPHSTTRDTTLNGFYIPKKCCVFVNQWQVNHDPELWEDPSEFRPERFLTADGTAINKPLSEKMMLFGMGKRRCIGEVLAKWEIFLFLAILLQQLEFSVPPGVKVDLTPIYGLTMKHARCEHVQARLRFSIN

# example entries with known answers
compound: Cc1ccc(S(=O)(=O)Oc2cc(S(=O)(=O)O)cc3cc(S(=O)(=O)O)cc(N)c23)cc1
val: 2 µM (inconclusive)

compound: COc1cc(Br)cc2cc(C(=O)NCC3CCCO3)c(=O)oc12 (stereo not given)
val: 3.55 µM (inconclusive)

compound: Nc1cccc(OCc2nc(N)nc(N)c2-c2ccc(Cl)cc2)c1
val: 0.158 µM (inconclusive)

compound: O=C(CCN1C[C@H]2CC[C@H](CC2)C1)c1cccs1
val: 5.01 µM (inconclusive)

Alright, here's another compound for you.
Exercise: Read the entry Cn1c(=O)c(-c2cccs2)nc2cnc(N3CCOCC3)nc21 and write its reported AC50.
Solution: 5.01 µM (inconclusive)
